Test system: MCF7 breast
Test: NCI-60 one-dose screen, 48 h
Conditions: 10 µM unless noted
Experimental: Growth inhibition of the MCF7 human tumor cell line is measured as a screen for anti-cancer activity. Cells are grown in 96 well plates and exposed to the test compound for 48 hours. Compounds are tested at a single concentration, which is 10^-5 M for most compounds. The reported endpoint is percent growth (GI% or GIPRCNT), where numbers from 0 - 100% represent growth inhibition, and numbers from -100% - 0 represent cell death. For example, a value of 40 represents 60% growth inhibition. […]
The panel holds about 83,000 compounds, 20% with a hit somewhere; the sample as a whole holds those more often. Active and inactive are the calls of the source. Rule for the calls: active = growth percent below 10; inactive = the rest.
API: response.call in true (1) = active, false (0) = inactive

Exercise: In this assay, the call recorded for `S=C(Nc1ccc(OCc2nc3ccccc3[nH]2)cc1)NC1CCCCC1` was what?
Solution: false (0)

Exercise: Lab log entry: `CC(=O)Oc1ccccc1C(=O)[Se]CC(=O)Nc1cccc(C(F)(F)F)c1` — outcome as called in the assay?
Solution: true (1)

Exercise: Just curious, what result did `Brc1ccc(-c2n(Cc3ccc4ccccc4c3)c(-c3ccccc3)c(-c3ccccc3)[n+]2Cc2ccc3ccccc3c2)cc1` get here?
Solution: true (1)

Exercise: Recorded test outcome, item `COc1cc2c3c(n(CCCN4CCC[C@@H]4CO)c(=O)c2cc1OC)-c1cc2c(cc1C3=O)OCO2`
Solution: true (1)

Exercise: Assay result, entry CC1(C)CC[C@]2(C(=O)O)CC[C@]3(C)C(=CCC4[C@@]5(C)C[C@@H](O)[C@@H]6OC(c7ccccc7F)OC[C@@]6(C)C5CC[C@]43C)C2C1 (some centres not stated) — outcome?
Solution: true (1)

Exercise: // return assay outcome for `Cc1ccc(C(=O)CSc2nc3ccc(F)cc3c(=O)n2-c2ccc(Cl)cc2)cc1`
Solution: false (0)

Exercise: // param item: `CCCCCCCCc1ccc(S(=O)(=O)Nc2ccc(CC)cc2C(=O)O)cc1` ; yields the recorded call
Solution: false (0)

Exercise: How did this test come out for `CCN(CC)c1ccc(/C=N/Nc2nc(-c3ccc(C)cc3)cs2)c(O)c1` ?
Solution: false (0)

Exercise: Each compound tested received a call. Report the one for COc1ccc(C2CC(c3ccc(S(=O)(=O)NCCNc4nc(Nc5ccc(F)cc5)nc(N(C)C)n4)cc3)=Nc3c(N)nc(N)nc3N2)cc1 (configuration not stated) .
Solution: false (0)

Exercise: I'd appreciate the recorded outcome for CCOC(=O)/C=C/c1cccc2c1C(=O)NC(C)(c1cc3cc(Cl)ccc3oc1=O)N2 (configuration not stated) from this test.
Solution: false (0)

Exercise: Each compound tested received a call. Report the one for O=C(c1ccc(OCCN2CCOCC2)cc1)C1[C@H](c2ccc(Cl)cc2)[C@@H](c2ccccc2)NC12C(=O)Nc1ccc(Br)cc12 (some centres not stated) .
Solution: true (1)

Exercise: Tell me the assay call for Cc1ccc([C@H]2C(C(=O)c3ccc(Cl)cc3)C3(N[C@@H]2c2ccccc2)C(=O)Nc2ccccc23)cc1 (some centres not stated) please.
Solution: false (0)

Exercise: Just curious, what result did Cc1cccc(NC(=O)[C@]23CCC(C)(C)CC2C2=CCC4[C@@]5(C)C[C@@H](O)[C@H](O)[C@@](C)(CO)C5CC[C@@]4(C)[C@]2(C)CC3)c1 (some centres not stated) get here?
Solution: true (1)

Exercise: Field: outcome | Entry: `CC(=O)Nc1cccc(Nc2nc(NCc3ccccc3)c3ccccc3n2)c1`
Solution: true (1)

Exercise: For this compound, state the assay outcome: `NS(=O)(=O)c1ccc(-n2cc(-c3cccc(NC(=O)c4ccc(Cl)c(C(F)(F)F)c4)c3)nn2)cc1`
Solution: true (1)

Exercise: Kindly provide the recorded test outcome for the following compound: `COc1ccc2[nH]c(O)c(N=NC(=O)COc3ccc(NC(=O)Nc4ccccc4)cc3)c2c1`
Solution: false (0)

Exercise: // outcome(item) with item = `COc1ccc(C(=O)/C=C/c2ccc(Oc3nc(Nc4ccc(F)cc4)nc(N(C)C)n3)c(OC)c2)cc1`
Solution: false (0)
